# Tested on: CD1 mice
# Test summary: Muscle relaxant activity, rotarod test
# Format: in vivo
# Conditions: Mus musculus, ip
// reported ED50 for each item listed
Test readout: ED50 (mg/kg)

Compound | Test readout | Result unit | Assay value
C[C@@H]1Cc2cc3c(cc2C(c2ccc(N)cc2)=NN1C1=NCCS1)OCO3 [Example 69] | ED50 | mg/kg | 1.2
Cc1nnc(N2N=C(c3ccc(N)cc3)c3cc4c(cc3C[C@H]2C)OCO4)o1 [Example 102] | ED50 | mg/kg | 2.9
COCc1nnc(N2N=C(c3ccc(N)c(C)c3)c3cc4c(cc3C[C@H]2C)OCO4)s1 [Example 168] | ED50 | mg/kg | 0.8
Cc1nnc(N2N=C(c3ccc(N)c(Cl)c3)c3cc4c(cc3C[C@H]2C)OCO4)s1 [Example 182] | ED50 | mg/kg | 2.61
